This listing pairs compounds with measured Percentage Conversion.
SYSTEM_UNDER_TEST: NahK_ATCC15697 (Bifidobacterium longum)
PROCEDURE_SUMMARY: Substrate specificity CE assay, NahK_ATCC15697
Type: biochemical, Bifidobacterium infantis
CONDITION_PARAMETERS: 0.75 μM enzyme, 10 min at 37° C.; substrate 1 mM, ATP 1 mM

{"COMPOUND": "O=S(=O)(O)NC1C(O)OC(CO)[C@@H](O)C1O (stereo partly shown) [2-N-sulfo-glucose]", "Percentage Conversion (%)": 0}
{"COMPOUND": "[N-]=[N+]=NCC(=O)NC1C(O)OC(CO)[C@@H](O)C1O (stereo partly shown) [GlcNAcN3]", "Percentage Conversion (%)": 11.5}
{"COMPOUND": "CCCC(=O)NC1C(O)OC(CO)[C@@H](O)C1O (stereo partly shown) [GlcNBu]", "Percentage Conversion (%)": 20.9}
{"COMPOUND": "[N-]=[N+]=NC1C(O)OC(CO)[C@H](O)C1O (stereo partly shown) [GalN3]", "Percentage Conversion (%)": 0}
{"COMPOUND": "[N-]=[N+]=N[C@@H](C=O)[C@@H](OS(=O)(=O)O)[C@H](O)[C@H](O)CO [3-O-sulfo-2-azido-2-deoxy glucose]", "Percentage Conversion (%)": 0}
{"COMPOUND": "O=C(NC1C(O)OC(COS(=O)(=O)O)[C@@H](O)C1O)C(F)(F)F (stereo partly shown) [6-O-sulfo-N-trifluoroacetyl glucosamine]", "Percentage Conversion (%)": 0}
{"COMPOUND": "O=C(NC1C(O)OC(CO)[C@@H](O)C1O)C(F)(F)F (stereo partly shown) [GlcNTFA]", "Percentage Conversion (%)": 10.7}
{"COMPOUND": "[N-]=[N+]=NC1C(O)OC(COS(=O)(=O)O)[C@@H](O)[C@@H]1O (stereo partly shown) [6-O-sulfo-2-azido-2-deoxy glucose]", "Percentage Conversion (%)": 0}
{"COMPOUND": "O=C(NC1C(O)OC(CO)[C@H](O)C1O)C(F)(F)F (stereo partly shown) [GalNTFA]", "Percentage Conversion (%)": 11.2}
{"COMPOUND": "CC(=O)NC1C(O)OC(CO)[C@@H](O)[C@@H]1O (stereo partly shown) [GlcNAc, N-acetylglucosamine]", "Percentage Conversion (%)": 35.4}
{"COMPOUND": "CC(=O)NC1C(O)OC(CO)[C@H](O)[C@@H]1O (stereo partly shown) [GalNAc, N-acetylgalactosamine]", "Percentage Conversion (%)": 12.5}
{"COMPOUND": "CC(=O)NC1C(O)OC(C)[C@@H](O)C1O (stereo partly shown) [6-deoxy-GlcNAc]", "Percentage Conversion (%)": 4.4}
{"COMPOUND": "NC1C(O)OC(CO)[C@@H](O)[C@@H]1O (stereo partly shown) [2-amino-2-deoxy-glucose]", "Percentage Conversion (%)": 0}
{"COMPOUND": "[N-]=[N+]=NCC(=O)NC1C(O)OC(CO)[C@H](O)C1O (stereo partly shown) [GalNAcN3]", "Percentage Conversion (%)": 9.9}
{"COMPOUND": "CC(=O)NC1C(O)OC(CN=[N+]=[N-])[C@@H](O)C1O (stereo partly shown) [6-azido-6-deoxy-GlcNAc]", "Percentage Conversion (%)": 0}
{"COMPOUND": "O=C(NC1C(O)OC(CO)[C@H](O)C1O)c1ccccc1 (stereo partly shown) [GalNBz]", "Percentage Conversion (%)": 0}
{"COMPOUND": "O=C(NC1C(O)OC(CO)[C@@H](O)C1O)c1ccccc1 (stereo partly shown) [GlcNBz]", "Percentage Conversion (%)": 10.3}
{"COMPOUND": "CCCC(=O)NC1C(O)OC(CO)[C@H](O)C1O (stereo partly shown) [GalNBu]", "Percentage Conversion (%)": 12.1}
{"COMPOUND": "CC(=O)NC1C(O)OC(COS(=O)(=O)O)[C@@H](O)C1O (stereo partly shown) [6-O-sulfo-GlcNAc]", "Percentage Conversion (%)": 0}
